Dmax overview
target: ER in T47D cells (Homo sapiens (Human), UniProt P03372); test: In-cell Western (ICW) ER degradation assay in T47D cells; format: cell-based; conditions: read-out: T47D Dmax, T47D, maximal ER degradation, 16 hrs treatment
Sequence (P03372 whole entry): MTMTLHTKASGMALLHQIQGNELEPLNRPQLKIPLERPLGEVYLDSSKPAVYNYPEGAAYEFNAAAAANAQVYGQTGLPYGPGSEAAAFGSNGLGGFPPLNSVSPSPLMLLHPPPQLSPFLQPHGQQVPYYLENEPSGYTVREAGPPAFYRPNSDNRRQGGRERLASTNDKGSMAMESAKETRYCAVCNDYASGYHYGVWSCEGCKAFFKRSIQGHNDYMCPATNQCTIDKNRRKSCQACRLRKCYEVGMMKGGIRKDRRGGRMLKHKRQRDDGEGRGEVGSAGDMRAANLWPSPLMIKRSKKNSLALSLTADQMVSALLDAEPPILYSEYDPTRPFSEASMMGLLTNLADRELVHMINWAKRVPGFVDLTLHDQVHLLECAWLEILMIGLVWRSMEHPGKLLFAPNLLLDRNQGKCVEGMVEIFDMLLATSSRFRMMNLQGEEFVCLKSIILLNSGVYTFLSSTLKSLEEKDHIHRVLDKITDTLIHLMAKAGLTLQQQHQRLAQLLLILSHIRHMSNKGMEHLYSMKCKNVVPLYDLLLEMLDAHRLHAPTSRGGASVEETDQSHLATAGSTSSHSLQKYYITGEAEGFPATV

Past entries and their recorded results:
{"Compound": "COc1cc(N2CCC3(CC2)CC(CN2CCC4(CC2)COc2c4ccc4c2CN([C@H]2CCC(=O)NC2=O)C4=O)CO3)ccc1[C@H]1c2ccc(O)cc2CC[C@H]1c1ccccc1 (stereo partly shown) [Compound A54]", "Dmax": "> 75%"}
{"Compound": "COc1cc(N2CCC(CN3CC[C@]4(c5ccc(N[C@@H]6CCC(=O)NC6=O)cc5)[C@H](C3)C4(F)F)CC2)ccc1[C@@H]1c2ccc(O)cc2CC[C@@H]1c1ccccc1 [Compound A89]", "Dmax": "25 to 50%"}

Let us move to another entry and its Dmax.
Supply recorded Dmax for O=C1CC[C@H](N2Cc3c(ccc4c3OCC43CCN(CC4CC5(CCN(c6ccc([C@H]7c8ccc(O)cc8CC[C@H]7c7ccccc7)cc6F)CC5)C4)CC3)C2=O)C(=O)N1 [Compound A148] here.
> 75%

---

biological target: ER in MCF-7 cells (Homo sapiens (Human)); experiment: In-cell Western (ICW) ER degradation assay in MCF-7 cells; type: cell-based; details: MCF-7, ER degradation, 16 hrs treatment; read-out: MCF7 DC50
Sequence (P03372 whole entry): as above
Property: DC50

{"Compound": "COc1cc(N2CCC3(CC2)CC(CN2CCC4(CC2)COc2c4cc(C)c4c2CN([C@H]2CCC(=O)NC2=O)C4=O)C3)c(F)cc1[C@@H]1c2ccc(O)cc2CC[C@@H]1c1ccccc1", "DC50": "< 1 nM"}
{"Compound": "COc1cc(N2CCC3(CC2)CC(CN2CCC4(CC2)COc2cc5c(cc24)CN([C@H]2CCC(=O)NC2=O)C5=O)C3)c(F)cc1[C@@H]1c2ccc(O)cc2CC[C@@H]1c1ccccc1", "DC50": "< 1 nM"}
{"Compound": "O=C1CC[C@H](N2Cc3cc4c(cc3C2=O)OCC42CCN(C[C@@H]3COC4(CCN(c5ccc([C@H]6c7ccc(O)cc7CC[C@H]6c6ccccc6)cc5)CC4)C3)CC2)C(=O)N1", "DC50": "< 1 nM"}
{"Compound": "COc1cc(N2CCC3(CC2)CC(CN2CCC(c4ccc(NC5CCC(=O)NC5=O)cc4F)CC2)C3)ccc1[C@@H]1c2ccc(O)cc2CC[C@@H]1c1ccccc1 (stereo in doubt)", "DC50": "< 1 nM"}

Now consider the entry below.
Give the measured DC50 for O=C1CC[C@H](N2Cc3c(ccc4c3OCC43CCN(CC4CCC5(CC4)CN(c4ccc([C@@H]6c7ccc(O)cc7CC[C@@H]6c6ccccc6)cc4)C5)CC3)C2=O)C(=O)N1
< 1 nM

---

For ERα_LBD (GST) (Homo sapiens (Human), UniProt P03372), measured IC50 is reported for the entries below.

{"Compound": "O=C1CC[C@H](N2Cc3cc4c(cc3C2=O)OCC42CCN(C[C@@H]3COC4(CCN(c5ccc([C@H]6c7ccc(O)cc7CC[C@H]6c6ccccc6)cc5)CC4)C3)CC2)C(=O)N1", "Property": "IC50", "Assay value": "< 10 nM"}

Please report the measured IC50 for COc1cc(N2CCC3(CC2)CC(CN2CCC4(CC2)COc2cc5c(cc24)CN([C@H]2CCC(=O)NC2=O)C5=O)C3)c(F)cc1[C@@H]1c2ccc(O)cc2CC[C@@H]1c1ccccc1 tested on ERα_LBD (GST) (Homo sapiens (Human), UniProt P03372).
Sequence (P03372 311-547): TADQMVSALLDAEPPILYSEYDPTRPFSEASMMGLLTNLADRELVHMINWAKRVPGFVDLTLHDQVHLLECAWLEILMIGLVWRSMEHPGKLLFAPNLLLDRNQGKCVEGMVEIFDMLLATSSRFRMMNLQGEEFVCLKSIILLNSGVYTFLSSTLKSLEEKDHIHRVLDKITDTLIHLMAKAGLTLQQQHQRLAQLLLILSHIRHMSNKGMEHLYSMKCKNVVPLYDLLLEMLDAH
< 10 nM

Report the value of IC50 obtained on ERα_LBD (GST) (Homo sapiens (Human), UniProt P03372) for COc1cc(N2CCC3(CC2)CC(CN2CCN4c5ccc6c(c5OC[C@H]4C2)CN([C@H]2CCC(=O)NC2=O)C6=O)C3)c(F)cc1[C@@H]1c2ccc(O)cc2CC[C@@H]1c1ccccc1 .
< 10 nM

GET IC50 | system: ERα_LBD (GST) (Homo sapiens (Human), UniProt P03372) | item: COc1cc(N2CCC(CN3CCN4c5ccc6c(c5OCC4C3)CN([C@H]3CCC(=O)NC3=O)C6=O)CC2)c(F)cc1[C@@H]1c2ccc(O)cc2CC[C@@H]1c1ccccc1 (stereo in doubt)
< 10 nM

Specify IC50 for O=C1CC[C@H](N2Cc3c(ccc4c3OC[C@H]3CN(C[C@@H]5COC6(C5)CN(c5ccc([C@@H]7c8ccc(O)cc8CC[C@@H]7c7ccccc7)cc5)C6)CCN43)C2=O)C(=O)N1 (single isomer, unassigned) , system ERα_LBD (GST) (Homo sapiens (Human), UniProt P03372).
< 10 nM
